meta.source: ChEMBL document CHEMBL1140265

RNA-directed RNA polymerase (Hepacivirus hominis): recorded IC50 for assorted molecules
Sequence (O39930 whole entry): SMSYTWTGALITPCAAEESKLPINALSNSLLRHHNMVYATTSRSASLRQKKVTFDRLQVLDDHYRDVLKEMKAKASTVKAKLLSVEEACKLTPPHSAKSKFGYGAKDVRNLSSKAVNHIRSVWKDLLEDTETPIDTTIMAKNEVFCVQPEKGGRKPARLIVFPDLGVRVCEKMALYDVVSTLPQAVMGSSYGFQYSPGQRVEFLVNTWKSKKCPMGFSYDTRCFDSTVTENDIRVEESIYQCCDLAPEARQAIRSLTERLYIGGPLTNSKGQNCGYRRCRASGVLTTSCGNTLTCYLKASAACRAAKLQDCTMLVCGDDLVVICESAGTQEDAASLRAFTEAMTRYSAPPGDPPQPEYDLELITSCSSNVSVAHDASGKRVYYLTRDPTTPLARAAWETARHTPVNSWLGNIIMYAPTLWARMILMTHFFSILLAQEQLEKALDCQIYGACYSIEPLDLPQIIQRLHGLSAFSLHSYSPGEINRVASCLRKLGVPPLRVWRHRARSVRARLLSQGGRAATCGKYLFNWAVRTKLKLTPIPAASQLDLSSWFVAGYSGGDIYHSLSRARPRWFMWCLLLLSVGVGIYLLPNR
readoutKind: IC50 (µM)

Illustrative cases are given below, each with its answer.
- smilesData: "N#Cc1ccccc1Oc1ccc(/C=C(\\NC(=O)c2ccccc2)C(=O)O)cc1"
  tgt: "RNA-directed RNA polymerase (Hepacivirus hominis)"
  unitAbbreviation: "µM"
  IC50: 47
- smilesData: "O=C(O)/C(=C/c1ccc(-c2ccccc2F)o1)NC(=O)c1ccccc1"
  tgt: "RNA-directed RNA polymerase (Hepacivirus hominis)"
  unitAbbreviation: "µM"
  IC50: 3.1
- smilesData: "O=C(O)/C(=C/c1ccc(-c2ccc(C(F)(F)F)cc2)o1)NC(=O)c1ccccc1"
  tgt: "RNA-directed RNA polymerase (Hepacivirus hominis)"
  unitAbbreviation: "µM"
  IC50: 13
- smilesData: "O=C(O)/C(=C/c1ccc(-c2cccc(C(F)(F)F)c2)o1)NC(=O)c1ccccc1"
  tgt: "RNA-directed RNA polymerase (Hepacivirus hominis)"
  unitAbbreviation: "µM"
  IC50: 8.7
- smilesData: "O=C(O)/C(=C/c1ccc(-c2ccccc2Cl)o1)NC(=O)c1ccccc1"
  tgt: "RNA-directed RNA polymerase (Hepacivirus hominis)"
  unitAbbreviation: "µM"
  IC50: 1.3
- smilesData: "CC(C)c1ccccc1Oc1ccc(/C=C(\\NC(=O)c2ccccc2)C(=O)O)cc1"
  tgt: "RNA-directed RNA polymerase (Hepacivirus hominis)"
  unitAbbreviation: "µM"
  IC50: 28
- smilesData: "O=C(O)/C(=C/c1ccc(Oc2c(F)cccc2Br)cc1)NC(=O)c1ccccc1"
  tgt: "RNA-directed RNA polymerase (Hepacivirus hominis)"
  unitAbbreviation: "µM"
  IC50: 0.03
- smilesData: "O=C(O)/C(=C/c1ccc(-c2ccccc2C(F)(F)F)o1)NC(=O)c1ccccc1"
  tgt: "RNA-directed RNA polymerase (Hepacivirus hominis)"
  unitAbbreviation: "µM"
  IC50: 5.6

P: O=C(O)/C(=C/c1ccc(-c2ccccc2CO)s1)NC(=O)c1ccccc1
Q: O=C(O)/C(=C/c1ccc(Oc2ccccc2[N+](=O)[O-])cc1)NC(=O)c1ccccc1
R: Cc1cccc(Cl)c1Oc1ccc(/C=C(\NC(=O)c2ccccc2)C(=O)O)cc1
S: O=C(O)/C(=C/c1ccc(-c2ccccc2[N+](=O)[O-])o1)NC(=O)c1ccccc1
Hey, quick one: sort these by IC50, largest value first please. As an answer, provide the labels arranged in the order called for.
Q, P, S, R

I: O=C(O)/C(=C/c1ncc(-c2ccccc2Cl)s1)NC(=O)c1ccccc1
II: O=C(O)/C(=C/c1ccc(-c2ccccc2)s1)NC(=O)c1ccccc1
Which of the two gives a bigger number for IC50: I or II ? Your answer should be the label of the entry you select.
I
(I: 5.2 µM, II: 1.5 µM)

1: O=C(O)/C(=C/c1ccc(-c2ccc(Cl)cc2)o1)NC(=O)c1ccccc1
2: Nc1cccc(Cl)c1Oc1ccc(/C=C(\NC(=O)c2ccccc2)C(=O)O)cc1
Of 1 and 2 , whose reported IC50 is numerically smaller? Returns: label corresponding to the selected item.
2

###

Assay: Half-life in rat after 5 mpk dosage administration
Type: ADME, organism-based
Conditions: in vivo, 5 mg/kg
readoutKind: half-life (h)

- smilesData: "O=C(O)/C(=C/c1ccc(Oc2ccccc2Cl)cc1)NC(=O)c1ccccc1"
  half-life / h: 1.9
- smilesData: "O=C(O)/C(=C/c1ccc(Oc2ccccc2Br)cc1)NC(=O)c1ccccc1"
  half-life / h: 1.5
